The values you see were collected from patent US8383814B2.

Test system: rhesus H3 receptor
method: GTPγS radioligand binding assay: inhibition of rhesus H3 constitutive functional activity in cell membranes (inverse agonism)
Assay type: biochemical, rhesus monkey (Macacca Mulatta)
Design: concentration or dose not given beside the values
condition context: negative value = below basal level
quantity: Inverse Agonism: % inhibition of Basal GTPγS binding in Rhesus H3 (%)
Report as a plain number; the unit % is understood.

Example entries and their recorded answers appear below.
* CC(C)C1CCCN1C1CCN(c2ccc(N3CCC4(CCOCC4)C3=O)cc2)CC1 (stereo not drawn) [Example 13] | −22
* C[C@H]1CCCN1[C@H]1CCN(c2ccc(N3CCC4(CCOCC4)C3=O)c(F)c2)C1 [Example 11] | −11

For C[C@H]1CCCCN1C1CCN(c2ccc(N3CCC4(CCOCC4)C3=O)c(C(F)(F)F)c2)CC1 [Example 23] , write its Inverse Agonism: % inhibition of Basal GTPγS binding in Rhesus H3.
−29

For C[C@@H]1CCCN1[C@@H]1CCN(c2ccc(N3CCCC4(CCOCC4)C3=O)c(F)c2)C1 [Example 39] , write its Inverse Agonism: % inhibition of Basal GTPγS binding in Rhesus H3.
−13

For CCc1cc(N2CCC(N3CCCC3COC)CC2)ccc1N1CCC2(CCOCC2)C1=O (stereo not drawn) [Example 25] , write its Inverse Agonism: % inhibition of Basal GTPγS binding in Rhesus H3.
−13

For C[C@H]1CCCN1[C@H]1CCN(c2ccc(N3CCC4(CCOCC4)C3=O)cc2F)C1 [Example 4] , write its Inverse Agonism: % inhibition of Basal GTPγS binding in Rhesus H3.
−31
